- Test system: NCI/ADR-RES
- Experiment Summary: NCI tumour cell line growth inhibition, 48 h
Activity calls are given as the source filed them. Rule as the data show it: active = GI50 up to about 1.1 µM and inactive = higher. Where a SMILES comes first, the peptide text is derived from it. The star is where a group is joined. Boc = CC(C)(C)OC(=O)*
Returns: one label drawn from 1 (yes) for active, 0 (no) for inactive

What is the recorded call for this compound in the test? COC1(OC)C[C@H](C)[C@@]23O[C@]24c2cc(O)c5c(c2N[C@H]3C#C/C=C\C#C[C@]14O)C(=O)c1ccccc1C5=O
1 (yes)

Continuing:
What is the recorded call for this compound in the test? O=C1CCC(CCc2nc3ccccc3[nH]2)(c2ccccc2)C(=O)N1 (centres undefined)
0 (no)

What is the recorded call for this compound in the test? COC(=O)C(C)NC(=O)C(CCSC)NC(=O)C(Cc1ccccc1)NC(=O)OC(C)(C)C (stereo not drawn) (Boc-Phe-Met-Ala-OMe; configuration not given here)
0 (no)

What is the recorded call for this compound in the test? COC(=O)CC[N+]1([O-])CC1
0 (no)
